Target: Angiotensin II receptor (AT-1) type-1 (Rattus norvegicus, UniProt P29089+P25095)
Sequence (P29089 whole entry): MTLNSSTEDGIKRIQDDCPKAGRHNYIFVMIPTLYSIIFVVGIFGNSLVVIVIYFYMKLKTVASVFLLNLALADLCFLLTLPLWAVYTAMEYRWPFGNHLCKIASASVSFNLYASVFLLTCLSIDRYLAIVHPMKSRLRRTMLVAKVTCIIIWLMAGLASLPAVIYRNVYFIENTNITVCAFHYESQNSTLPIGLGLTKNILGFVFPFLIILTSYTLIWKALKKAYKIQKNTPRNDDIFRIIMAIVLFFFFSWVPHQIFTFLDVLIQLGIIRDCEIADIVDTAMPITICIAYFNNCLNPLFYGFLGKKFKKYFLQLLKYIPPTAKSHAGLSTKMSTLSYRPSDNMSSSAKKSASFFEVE
Sequence (P25095 whole entry): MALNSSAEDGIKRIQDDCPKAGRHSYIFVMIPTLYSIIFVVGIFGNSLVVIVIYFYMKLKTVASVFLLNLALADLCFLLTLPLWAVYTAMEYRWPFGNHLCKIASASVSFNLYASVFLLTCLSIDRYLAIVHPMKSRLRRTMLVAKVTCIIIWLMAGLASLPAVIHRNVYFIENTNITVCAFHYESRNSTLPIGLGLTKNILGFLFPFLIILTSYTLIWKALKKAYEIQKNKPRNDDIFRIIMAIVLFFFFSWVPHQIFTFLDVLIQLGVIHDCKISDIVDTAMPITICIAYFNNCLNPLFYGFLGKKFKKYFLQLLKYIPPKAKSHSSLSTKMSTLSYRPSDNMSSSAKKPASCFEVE
Assay: Compound was evaluated for the in vitro inhibition of specific binding of [125I]-A II to Angiotensin II receptor, type 1 from rat adrenal membranes.
Assay type: cell membranes, Membrane
assay metric: IC50 (pM)

a. Cc1nc(C)c2c(n1)N(Cc1ccc(-c3ccccc3-c3nnn[nH]3)cc1)C(=O)CC2
b. Cc1nc(C)c2ccc(=O)n(Cc3ccc(-c4ccccc4-c4nn[nH]n4)cc3)c2n1
c. Cc1nc(C)c2c(O)cc(=O)n(Cc3ccc(-c4ccccc4-c4nn[nH]n4)cc3)c2n1
d. Cc1nc(CO)nc2c1c(O)cc(=O)n2Cc1ccc(-c2ccccc2-c2nn[nH]n2)cc1
Write the entries in order, lowest recorded IC50 first. Thanks in advance for listing the labels in the requested order. c, d, a, b
